Measured Active Substance Enthalpy of individual entries
# Experiment notes: DSC enthalpy of fusion and percentage residual crystallinity of co-ground compositions
# Assay type: physicochemical
# Particulars: enthalpy of fusion of the active substance as such, before co-grinding
Metric name: Active Substance Enthalpy (J/g)

{"Compound": "CC(=O)N[C@@H](CS)C(=O)O", "Measured": 192.9}
{"Compound": "Oc1ccc(C=Cc2cc(O)cc(O)c2)cc1", "Measured": 317.7}
{"Compound": "CC(=O)OCC(=O)[C@@]1(O)CC[C@H]2[C@@H]3CCC4=CC(=O)CC[C@]4(C)[C@H]3[C@@H](O)C[C@@]21C [HCA, hydrocortisone acetate]", "Measured": 117.9}
{"Compound": "C[C@]12CC[C@H](O)CC1=CC[C@@H]1[C@@H]2CC[C@]2(C)C(=O)CC[C@@H]12 [DHEA, dehydroepiandrosterone]", "Measured": 100}
{"Compound": "Cc1cc(O)c(C2CC3CCC2(C)C3(C)C)cc1C (centres unmarked)", "Measured": 92.8}
